target: T1, mouse TfR ectodomain fused to a mouse IgG1 Fc fragment (mouse, UniProt Q62351 89-763); test: SPR, kinetic
T1 construct: extracellular domain; not shown: mouse IgG1 Fc fragment
T1 sequence (Q62351 89-763): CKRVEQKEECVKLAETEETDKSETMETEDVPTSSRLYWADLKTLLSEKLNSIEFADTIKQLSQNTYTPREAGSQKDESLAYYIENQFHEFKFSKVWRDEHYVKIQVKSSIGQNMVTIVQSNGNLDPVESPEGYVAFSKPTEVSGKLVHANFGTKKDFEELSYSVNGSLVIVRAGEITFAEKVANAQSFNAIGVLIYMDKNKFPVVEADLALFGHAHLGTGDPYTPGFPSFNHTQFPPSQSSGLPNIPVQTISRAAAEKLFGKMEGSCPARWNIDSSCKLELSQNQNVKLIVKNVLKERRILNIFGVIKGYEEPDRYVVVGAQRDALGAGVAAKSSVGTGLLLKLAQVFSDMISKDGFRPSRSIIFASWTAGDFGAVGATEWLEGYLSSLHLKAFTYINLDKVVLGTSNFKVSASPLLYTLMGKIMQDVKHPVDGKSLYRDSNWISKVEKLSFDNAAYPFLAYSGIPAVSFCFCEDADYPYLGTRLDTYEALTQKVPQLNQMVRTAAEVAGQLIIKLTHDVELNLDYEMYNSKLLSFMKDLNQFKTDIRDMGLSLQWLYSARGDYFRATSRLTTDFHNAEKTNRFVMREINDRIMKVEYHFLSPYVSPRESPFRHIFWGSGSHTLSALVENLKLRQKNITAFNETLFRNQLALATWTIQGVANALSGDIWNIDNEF
So basically: is koff under 0.07 s⁻¹? Then Fulfilled. Not under? Then Not fulfilled.

C5^h18 (VHH) VHH: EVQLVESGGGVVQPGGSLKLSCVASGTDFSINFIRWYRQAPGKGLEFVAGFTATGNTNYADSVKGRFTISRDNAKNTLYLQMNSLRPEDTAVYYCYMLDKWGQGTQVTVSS | Not fulfilled
C5^V16h20 (VHH) VHH: EVQLVESGGGVVQPGGSLRLSCAASGTDFSINFIRWYRQAPGKGLEFVAGFTATGNTNYADSVKGRFTISRDNAKNAVYLQMNSLRPEDTAVYYCYILDKWGQGTQVTVSS | Not fulfilled
VHH A11 (C5^V11) (VHH) VHH: EVQLVESGGGVVQPGGSLKLSCVASGTDFSINYIRWYRQAPGKQREFVAGFTATGNTNYADSMKGRFTISRDNTKNAVYLQIDSLKPEDTAVYYCYMLDKWGQGTQVTVSS | Fulfilled
VHH A1 (C5^V1) (VHH) VHH: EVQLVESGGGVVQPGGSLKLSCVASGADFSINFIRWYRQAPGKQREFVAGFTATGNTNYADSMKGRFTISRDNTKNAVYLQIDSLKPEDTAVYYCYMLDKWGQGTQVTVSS | Not fulfilled
C5^V27 (VHH) VHH: EVQLVESGGGVVQPGGSLKLSCVASGADFSINYIRWYRQAPGKQREFVAGFTATGNTNYADSMKGRFTISRDNTKNAVYLQIDSLKPEDTAVYYCYMLDKWGQGTQVTVSS | Not fulfilled

Q) Lab note: confirm whether the reported koff for this binder is below 0.07 s⁻¹, equality not counting. binder: VHH B (B8) (VHH) VHH: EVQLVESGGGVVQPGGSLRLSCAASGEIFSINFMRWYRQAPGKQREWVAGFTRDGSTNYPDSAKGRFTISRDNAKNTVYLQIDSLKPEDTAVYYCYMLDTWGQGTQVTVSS
A) Fulfilled

Q) Threshold test, koff < 0.07 s⁻¹: C5^h19 (VHH) VHH: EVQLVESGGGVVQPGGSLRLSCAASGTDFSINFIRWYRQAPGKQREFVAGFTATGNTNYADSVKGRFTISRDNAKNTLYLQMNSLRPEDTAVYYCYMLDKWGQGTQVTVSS
A) Fulfilled

Q) Report whether reported koff is lower than 0.07 s⁻¹ (strictly) for VHH A9 (C5^V9) (VHH) VHH: EVQLVESGGGVVQPGGSLKLSCVASGTDFSINFIRWYRQAPGKQREFVAGFTATGNTNYADSMKGRFTISRDNTKNAVYLQIDSLKPEDTAVYYCYMLDAWGQGTQVTVSS
A) Fulfilled

The values you see were collected from patent US20230414780A1.
